Recorded pIC50 values for a group of compounds are listed next.
# targetDesc: human TLR9 (Homo sapiens, UniProt Q9NR96)
# Sequence (Q9NR96 26-1032): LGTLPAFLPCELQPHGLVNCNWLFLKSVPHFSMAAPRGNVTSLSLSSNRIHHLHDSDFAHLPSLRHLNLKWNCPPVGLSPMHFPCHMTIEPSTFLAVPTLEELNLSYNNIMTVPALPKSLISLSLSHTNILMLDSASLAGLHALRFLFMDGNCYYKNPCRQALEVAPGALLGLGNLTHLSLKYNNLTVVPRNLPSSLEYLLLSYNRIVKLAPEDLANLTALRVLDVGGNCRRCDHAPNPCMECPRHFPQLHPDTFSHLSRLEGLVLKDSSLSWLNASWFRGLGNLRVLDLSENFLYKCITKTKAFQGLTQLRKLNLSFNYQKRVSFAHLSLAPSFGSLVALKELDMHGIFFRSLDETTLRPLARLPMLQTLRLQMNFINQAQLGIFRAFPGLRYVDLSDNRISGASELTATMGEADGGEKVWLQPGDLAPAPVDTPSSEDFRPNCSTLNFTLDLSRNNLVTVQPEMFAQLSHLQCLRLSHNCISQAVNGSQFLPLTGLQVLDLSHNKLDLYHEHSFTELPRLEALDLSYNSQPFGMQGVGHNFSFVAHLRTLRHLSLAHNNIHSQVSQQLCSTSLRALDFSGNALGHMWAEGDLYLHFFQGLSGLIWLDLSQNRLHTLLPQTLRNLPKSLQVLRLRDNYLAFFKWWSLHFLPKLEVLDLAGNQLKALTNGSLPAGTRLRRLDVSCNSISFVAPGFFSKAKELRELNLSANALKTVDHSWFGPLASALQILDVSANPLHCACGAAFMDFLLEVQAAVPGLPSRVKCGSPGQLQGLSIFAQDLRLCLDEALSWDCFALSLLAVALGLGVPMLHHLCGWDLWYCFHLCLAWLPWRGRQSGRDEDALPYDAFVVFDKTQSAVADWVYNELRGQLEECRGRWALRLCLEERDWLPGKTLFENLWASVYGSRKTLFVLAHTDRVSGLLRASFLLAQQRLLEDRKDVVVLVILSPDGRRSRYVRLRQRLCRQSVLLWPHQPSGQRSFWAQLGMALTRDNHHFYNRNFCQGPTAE
# method: TLR9 inhibition reporter assay (HEK-Blue SEAP)
# experimentalParameters: HEK-Blue cells overexpressing human TLR9, ODN2006 5 nM, 22 hour incubation
Just so you know, pIC50 here is -log10 of the concentration in molar units; reply with that number alone.

>>> print(df.to_string())
                                   compound  recordedresult
0  COc1c(C)c(-c2cc3[nH]c(=O)n(C4CCC(NCC5(S(C)(=O)=O)CC5)CC4)c3cc2C(C)C)cn2ncnc12 (single isomer, unassigned) [Example 259]            4.39
1  COc1cc(-c2cc3[nH]c(=O)n([C@@H]4CCCN(CC(C)C)C4)c3cc2C(C)C)cn2ncnc12 [Example 141]            5.41
2  COc1cc(-c2cc3[nH]c(=O)n(C4CCC(N5CC(F)(F)C5)CC4)c3cc2C(C)C)cn2ncnc12 (single isomer, unassigned) [Example 297]            4.79
3  CCc1cc2c(cc1-c1cc(OC)c3ncnn3c1)[nH]c(=O)n2[C@@H]1CCCN(CCC(F)(F)F)C1 [Example 183]            4.48
4  Cc1cc2c(cc1-c1cc(C)c3ncnn3c1)[nH]c(=O)n2[C@H]1CC[C@H](N)CC1 [1 EF]            5.64

// below: pIC50 requested for another compound
Query: Look up pIC50 for this compound: COc1cc(-c2cc3[nH]c(=O)n([C@H]4CC[C@@H](NC5CCCCC5)CC4)c3cc2C)cn2ncnc12 [Example 62]
Response: 5.63

###

# targetDesc: human TLR8 (Homo sapiens, UniProt Q9NR97)
# Sequence (Q9NR97 27-1041): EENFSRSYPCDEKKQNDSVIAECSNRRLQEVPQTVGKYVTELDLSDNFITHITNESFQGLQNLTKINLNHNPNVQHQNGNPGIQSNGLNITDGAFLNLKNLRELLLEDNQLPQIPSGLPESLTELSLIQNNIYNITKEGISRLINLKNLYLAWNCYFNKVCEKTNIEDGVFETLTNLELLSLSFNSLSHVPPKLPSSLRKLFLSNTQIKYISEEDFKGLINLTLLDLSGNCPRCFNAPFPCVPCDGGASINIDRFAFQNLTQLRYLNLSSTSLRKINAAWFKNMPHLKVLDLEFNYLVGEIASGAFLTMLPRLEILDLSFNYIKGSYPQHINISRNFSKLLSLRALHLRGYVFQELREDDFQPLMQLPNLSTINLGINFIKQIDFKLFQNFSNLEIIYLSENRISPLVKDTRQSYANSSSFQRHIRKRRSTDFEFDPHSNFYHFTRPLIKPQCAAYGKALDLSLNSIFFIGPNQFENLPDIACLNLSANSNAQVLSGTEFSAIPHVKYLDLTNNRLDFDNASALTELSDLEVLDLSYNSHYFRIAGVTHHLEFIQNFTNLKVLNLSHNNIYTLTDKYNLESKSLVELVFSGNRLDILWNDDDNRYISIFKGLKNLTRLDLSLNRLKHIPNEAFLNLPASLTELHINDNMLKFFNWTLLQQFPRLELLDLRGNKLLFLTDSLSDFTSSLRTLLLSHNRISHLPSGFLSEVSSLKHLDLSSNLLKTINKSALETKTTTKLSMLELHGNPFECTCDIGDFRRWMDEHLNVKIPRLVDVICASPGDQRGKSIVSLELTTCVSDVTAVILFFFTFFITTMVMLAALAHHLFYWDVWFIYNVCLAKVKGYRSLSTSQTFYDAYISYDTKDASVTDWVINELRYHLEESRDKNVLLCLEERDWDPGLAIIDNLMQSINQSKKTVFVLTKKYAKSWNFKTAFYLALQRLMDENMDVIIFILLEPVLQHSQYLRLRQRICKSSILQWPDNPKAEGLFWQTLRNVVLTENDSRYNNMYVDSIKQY
# method: TLR8 inhibition reporter assay (HEK-Blue SEAP)
# experimentalParameters: HEK-Blue cells overexpressing human TLR8, R848 15.9 μM, 22 hour incubation
Recorded IC50 values for a group of compounds are listed next.
Response body: numeric value in µM, unit text excluded.

These recorded examples may help you get a feel for the data.
                                   compound  metric  recordedresult
0  Cc1cc2c(cc1-c1cc(C)c3ncnn3c1)[nH]c(=O)n2[C@@H]1CCCN(CC(C)(C)C)C1    IC50           0.384
1  COc1cc(-c2cc3[nH]c(=O)n([C@H]4CC[C@H](NC5COC5)CC4)c3cc2C(C)C)cn2ncnc12    IC50         0.00154
2  CCc1cc2c(cc1-c1cc(OC)c3ncnn3c1)[nH]c(=O)n2[C@@H]1CCCN(C2CCCOC2)C1 (stereo partly drawn) [Example 214]    IC50          0.0193
3  CCN1CCC(n2c(=O)[nH]c3cc(-c4cc(OC)c5ncnn5c4)c(C)cc32)CC1    IC50          0.0927

Query: Form field - read-out: IC50; system: human TLR8 (Homo sapiens, UniProt Q9NR97); submitted item: COc1cc(-c2cc3[nH]c(=O)n([C@@H]4CCCN(C)C4)c3cc2C)cn2ncnc12
Response: 0.021

Query: Form field - read-out: IC50; system: human TLR8 (Homo sapiens, UniProt Q9NR97); submitted item: COc1cc(-c2cc3[nH]c(=O)n([C@@H]4CCCN(CC(C)(C)C)C4)c3cc2C(F)(F)F)cn2ncnc12
Response: 0.0578

Query: Form field - read-out: IC50; system: human TLR8 (Homo sapiens, UniProt Q9NR97); submitted item: COc1c(C)c(-c2cc3[nH]c(=O)n(C4CCC(N5CC6(COC6)C5)CC4)c3cc2C(C)C)cn2ncnc12 (single isomer, unassigned) [Example 269]
Response: 0.00158

Query: Form field - read-out: IC50; system: human TLR8 (Homo sapiens, UniProt Q9NR97); submitted item: Cc1cc(-c2ccc3c(c2)[nH]c(=O)n3C2CCNCC2)cn2ncnc12
Response: 1.03

Query: Form field - read-out: IC50; system: human TLR8 (Homo sapiens, UniProt Q9NR97); submitted item: COc1cc(-c2cc3[nH]c(=O)n([C@@H]4CCCN(CC(C)(C)C)C4)c3cc2C(C)C)cn2ncnc12
Response: 0.00227

Query: Form field - read-out: IC50; system: human TLR8 (Homo sapiens, UniProt Q9NR97); submitted item: COc1cc(-c2cc3[nH]c(=O)n([C@@H]4CCCN(C5CCOCC5)C4)c3cc2C(C)C)cn2ncnc12
Response: 0.00324

Query: Form field - read-out: IC50; system: human TLR8 (Homo sapiens, UniProt Q9NR97); submitted item: COc1cc(-c2cc3[nH]c(=O)n(C4CCC(N5CC(OC)C5)CC4)c3cc2C(C)C)cn2ncnc12 (stereo not drawn) [Example 238]
Response: 0.00026

###

Recorded IC50 values for a group of molecules are listed next.
# targetDesc: human TLR7 (Homo sapiens, UniProt Q9NYK1)
# Sequence (Q9NYK1 27-1049): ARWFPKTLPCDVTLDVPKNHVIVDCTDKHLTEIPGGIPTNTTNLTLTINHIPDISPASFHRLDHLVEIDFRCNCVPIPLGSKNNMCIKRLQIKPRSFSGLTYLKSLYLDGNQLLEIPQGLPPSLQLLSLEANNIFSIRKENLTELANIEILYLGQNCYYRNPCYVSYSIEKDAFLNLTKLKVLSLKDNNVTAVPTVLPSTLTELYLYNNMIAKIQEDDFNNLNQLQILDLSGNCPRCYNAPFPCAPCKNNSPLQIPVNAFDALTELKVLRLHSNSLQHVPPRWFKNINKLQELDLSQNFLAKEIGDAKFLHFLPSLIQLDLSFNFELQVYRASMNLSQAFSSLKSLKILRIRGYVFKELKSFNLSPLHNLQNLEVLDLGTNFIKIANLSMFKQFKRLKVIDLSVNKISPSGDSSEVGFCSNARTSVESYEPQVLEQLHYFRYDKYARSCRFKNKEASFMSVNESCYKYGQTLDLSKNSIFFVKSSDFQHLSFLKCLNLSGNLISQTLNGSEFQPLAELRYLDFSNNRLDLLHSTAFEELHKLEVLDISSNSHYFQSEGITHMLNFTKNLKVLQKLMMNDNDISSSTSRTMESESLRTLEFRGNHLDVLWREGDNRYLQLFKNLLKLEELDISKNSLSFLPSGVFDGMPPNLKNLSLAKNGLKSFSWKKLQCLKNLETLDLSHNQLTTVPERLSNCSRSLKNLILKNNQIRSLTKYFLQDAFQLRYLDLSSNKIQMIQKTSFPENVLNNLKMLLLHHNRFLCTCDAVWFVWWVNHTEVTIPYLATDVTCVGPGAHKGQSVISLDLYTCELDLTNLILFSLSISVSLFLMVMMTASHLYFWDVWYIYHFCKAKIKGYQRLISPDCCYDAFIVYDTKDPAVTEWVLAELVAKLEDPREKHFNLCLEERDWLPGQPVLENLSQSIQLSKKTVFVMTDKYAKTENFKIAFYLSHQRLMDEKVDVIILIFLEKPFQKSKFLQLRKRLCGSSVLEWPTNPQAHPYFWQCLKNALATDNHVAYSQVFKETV
# method: TLR7 inhibition reporter assay (HEK-Blue SEAP)
# experimentalParameters: HEK-Blue cells overexpressing human TLR7, gardiquimod 7.5 μM, 22 hour incubation
Response body: numeric value in nM, unit text excluded.

                                   molecule  metric  recordedresult
0  COc1cc(-c2cc3[nH]c(=O)n(C4CCC(N5CCC(S(C)(=O)=O)C5)CC4)c3cc2C(C)C)cn2ncnc12 (single isomer, unassigned) [Example 288]    IC50            5.09
1  COc1c(C)c(-c2cc3[nH]c(=O)n(C4CCC(N5CCC(F)(F)CC5)CC4)c3cc2C(C)C)cn2ncnc12 (single isomer, unassigned) [Example 229]    IC50            7.31
2  COc1cc(-c2cc3[nH]c(=O)n([C@@H]4CCCN(C(C)C)C4)c3cc2C(C)C)cn2ncnc12    IC50            0.74
3  Cc1c(-c2cc3[nH]c(=O)n(C4CCC(N5CCC(F)(F)CC5)CC4)c3cc2C(C)C)cn2ncnc2c1C (single isomer, unassigned) [Example 275]    IC50            13.7
4  COc1cc(-c2cc3[nH]c(=O)n([C@@H]4CCCN(CCC(C)(C)C)C4)c3cc2C(C)C)cn2ncnc12    IC50            2.86
5  COc1cc(-c2cc3[nH]c(=O)n(C4CCC(N5CC6(C5)CS(=O)(=O)C6)CC4)c3cc2C(C)C)cn2ncnc12 (single isomer, unassigned) [Example 244]    IC50             8.3
6  CCN[C@H]1CC[C@H](n2c(=O)[nH]c3cc(-c4cc(C)c5ncnn5c4)c(C)cc32)CC1    IC50            12.4
7  Cc1cc2c(cc1-c1cc(C)c3ncnn3c1)[nH]c(=O)n2[C@H]1CCCN(CC(=O)N(C)C)C1    IC50             565

Query: Look up IC50 for this molecule: COc1cc(-c2ccc3c(c2)[nH]c(=O)n3C2CCN(CC3CCOC3)CC2)cn2ncnc12 (centres unmarked)
Response: 1300

Query: Look up IC50 for this molecule: Cc1cc2c(cc1-c1cc(C)c3ncnn3c1)[nH]c(=O)n2[C@H]1CC[C@@H](NCc2ncn(C)n2)CC1
Response: 138

Origin of the recorded values: patent US12187723B2
